Origin of values: PubChem BioAssay AID2060511

System: 422866-222-R5-J1-PDC spheroids with HUVEC/MSC, viability;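 also: spheroids exposed to compounds for seven days before reading; percent viability relative to DMSO vehicle control taken as 100%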
Assay: Anticancer human tumor 422866-222-R5-J1-PDC patient-derived pancreatic adenocarcinoma cell line growth inhibition [GQUAD]
Settings: second compound 0.0316 µM; first compound 3.16 µM; stronger effect = lower value
Item-by-item account of viability, T/C
measurement.name: viability, T/C (%)

compound	measurement.name	meas.value
Nc1ccn(C2OC(CO)C(O)C2(F)F)c(=O)n1 (stereo not drawn) + Cc1cnc(CNC(=O)c2c(=O)c3ccc(N4CCCN(C)CC4)nc3n3c2sc2ccccc23)cn1	viability, T/C	41.9
O=c1[nH]cc(F)c(=O)[nH]1 + Cc1cnc(CNC(=O)c2c(=O)c3ccc(N4CCCN(C)CC4)nc3n3c2sc2ccccc23)cn1	viability, T/C	78
C=CC(=O)N1CCN(c2nc(=O)n(-c3c(C)ccnc3C(C)C)c3nc(-c4c(O)cccc4F)c(F)cc23)C(C)C1 (stereo not drawn) + CN(C)c1ccc(Nc2c3ccc(NC(=O)CCN4CCCC4)cc3nc3cc(NC(=O)CCN4CCCC4)ccc23)cc1	viability, T/C	26.4
